target: Human HDAC6 (Homo sapiens (Human))
Sequence (Q9UBN7 whole entry): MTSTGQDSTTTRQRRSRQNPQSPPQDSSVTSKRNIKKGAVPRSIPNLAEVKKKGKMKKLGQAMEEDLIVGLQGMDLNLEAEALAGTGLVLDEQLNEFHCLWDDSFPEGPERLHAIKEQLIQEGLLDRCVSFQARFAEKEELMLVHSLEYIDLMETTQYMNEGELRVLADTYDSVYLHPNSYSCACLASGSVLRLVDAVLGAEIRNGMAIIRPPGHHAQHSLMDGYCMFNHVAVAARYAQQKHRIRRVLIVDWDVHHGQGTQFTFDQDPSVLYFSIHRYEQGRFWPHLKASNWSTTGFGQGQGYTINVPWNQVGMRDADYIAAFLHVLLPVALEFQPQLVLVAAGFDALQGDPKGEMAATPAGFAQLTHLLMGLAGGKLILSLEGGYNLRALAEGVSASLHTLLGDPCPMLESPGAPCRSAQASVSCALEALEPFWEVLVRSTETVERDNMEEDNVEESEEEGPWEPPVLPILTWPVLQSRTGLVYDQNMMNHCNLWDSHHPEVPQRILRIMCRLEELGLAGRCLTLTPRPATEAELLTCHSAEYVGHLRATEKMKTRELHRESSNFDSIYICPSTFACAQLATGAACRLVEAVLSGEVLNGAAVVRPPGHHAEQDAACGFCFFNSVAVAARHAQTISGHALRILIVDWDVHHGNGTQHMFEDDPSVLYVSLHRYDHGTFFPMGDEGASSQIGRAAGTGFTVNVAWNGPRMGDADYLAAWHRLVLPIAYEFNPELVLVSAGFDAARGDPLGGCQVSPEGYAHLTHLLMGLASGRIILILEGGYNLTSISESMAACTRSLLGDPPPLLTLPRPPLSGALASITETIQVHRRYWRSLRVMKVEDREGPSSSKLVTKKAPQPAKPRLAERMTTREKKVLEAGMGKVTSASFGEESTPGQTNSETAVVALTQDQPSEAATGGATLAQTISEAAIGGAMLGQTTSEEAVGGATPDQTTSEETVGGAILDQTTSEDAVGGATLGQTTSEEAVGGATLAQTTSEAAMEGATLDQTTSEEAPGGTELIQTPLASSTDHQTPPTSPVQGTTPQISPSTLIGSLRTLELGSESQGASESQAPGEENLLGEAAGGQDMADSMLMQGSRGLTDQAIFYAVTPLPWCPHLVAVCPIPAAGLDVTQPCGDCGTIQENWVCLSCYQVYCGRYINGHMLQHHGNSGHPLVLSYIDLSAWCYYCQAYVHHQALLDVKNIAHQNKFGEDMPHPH
Each entry below carries its recorded IC50.

FC(F)c1nnc(-c2ccc(COc3cnc(C(F)(F)F)nc3)nc2)o1    1 to 100 nM
CNC(=O)c1cccc(OCc2ccc(-c3nnc(C(F)F)o3)cn2)c1    1 to 100 nM

Continue with the next compound.
Quick one: IC50 for "N#Cc1ccc(OCc2ccc(-c3nnc(C(F)F)o3)cn2)c(F)c1" ?
1 to 100 nM

###

target: Human HDAC6 (Homo sapiens (Human)); assay: HDAC6 enzymatic activity assay (Caliper endpoint or fluorogenic format); type: biochemical; details: ratio of HDAC8 IC50/HDAC6 IC50
EXPERIMENTAL ENDPOINT: Selectivity (6 v 8) (fold)

Example entries and their recorded answers appear below.
FC(F)c1nnc(-c2ccc(COc3ccc4c(c3)ncn4CCN3CCCC3)nc2)o1 [Compound 209]    III (III: >10-100)
FC(F)c1nnc(-c2ccc(COc3cccc4cccnc34)nc2)o1 [Compound 10]    V (V: >1000)
Fc1cnc(OCc2ccc(-c3nnc(C(F)F)o3)cn2)nc1 [Compound 106]    V (V: >1000)
Fc1ccc(Cl)cc1OCc1ccc(-c2nnc(C(F)F)o2)cn1 [Compound 2]    V (V: >1000)
CN(C)CCn1cnc2cc(OCc3ccc(-c4nnc(C(F)F)o4)cn3)ccc21 [Compound 210]    III (III: >10-100)

Return Selectivity (6 v 8) (fold) measured with Human HDAC6 (Homo sapiens (Human)) given this compound: Cn1ncc2c(OCc3ccc(-c4nnc(C(F)F)o4)cn3)cccc21 [Compound 58]
V (V: >1000)

Please answer likewise for C#Cc1ccccc1OCc1ccc(-c2nnc(C(F)F)o2)cn1 [Compound 41]
V (V: >1000)

Please answer likewise for FC(F)c1nnc(-c2ccc(COc3ccc4cnccc4c3)nc2)o1 [Compound 32]
V (V: >1000)

Please answer likewise for FC(F)c1nnc(-c2ccc(COc3cccn4ccnc34)nc2)o1 [Compound 82]
V (V: >1000)

Please answer likewise for N#Cc1ccc(OCc2ccc(-c3nnc(C(F)F)o3)cn2)c(F)c1 [Compound 47]
V (V: >1000)

Please answer likewise for FC(F)c1nnc(-c2ccc(C(F)(F)Oc3cccc4cccnc34)nc2)o1 [Compound 13]
V (V: >1000)

###

Record set of pIC50 for target or system Human HDAC8 (Homo sapiens (Human)).
pIC50: −log10 of the molar value.

Fc1cccnc1OCc1ccc(-c2nnc(C(F)F)o2)cn1    < 4.00
Fc1ccc(OCc2ccc(-c3nnc(C(F)F)o3)cn2)nc1    < 4.00
FC(F)c1nnc(-c2ccc(COc3ccc4ccncc4c3)nc2)o1    5.00 to 6.00

Continue with the next molecule.
Quick one: pIC50 for "Cn1nc(-c2nc3ccc(OCc4ccc(-c5nnc(C(F)F)o5)cn4)cc3o2)ccc1=O" ?
< 4.00
